Tested on: Staphylococcus aureus
protocol-details: Antimicrobial activity against methicillin-sensitive Staphylococcus aureus CCARM 0204 incubated for 24 hrs by microtiter broth dilution method
Format: functional
test-context: CCARM 0204, 24 h
measurement-label: MIC

Worked examples follow.
>>> obs_value("CC12C[C@@]34C=CC(=O)[C@@](C)(CCC(=O)Nc5c(O)ccc(C(=O)O)c5O)C3[C@H](CC1C4)O2 (stereo partly drawn)")
"4 µg/mL"
>>> obs_value("O=C1O/C(=C\\c2cc(Br)c(O)c(Br)c2)C(c2ccc(O)c(Br)c2)=C1C(=O)c1cc(Br)c(O)c(Br)c1 [CADIOLIDE E]")
"2 µg/mL"
>>> obs_value("O=C1C=C(c2cc(Br)c(O)c(Br)c2)/C(=C/c2cc(Br)c(O)c(Br)c2)O1 [RUBROLIDE A]")
"4 µg/mL"
>>> obs_value("O=C1O/C(=C\\c2cc(Br)c(O)c(Br)c2)C(c2cc(Br)c(O)c(Br)c2)=C1C(=O)c1cc(Br)c(O)c(Br)c1 [CADIOLIDE B]")
"1 µg/mL"
>>> obs_value("O=C1O/C(=C\\c2ccc(O)c(Br)c2)C(c2cc(Br)c(O)c(Br)c2)=C1C(=O)c1cc(Br)c(O)c(Br)c1 [CADIOLIDE D]")
"0.5 µg/mL"

What measured MIC is associated with `COc1ccc(C=C2OC(=O)C=C2c2ccc(O)c(Br)c2)cc1` on Staphylococcus aureus?
> 32 µg/mL

Observed MIC on Staphylococcus aureus for O=C1C=C(c2ccc(O)c(Br)c2)/C(=C/c2cc(Br)c(O)c(Br)c2)O1 [RUBROLIDE J] , please.
2 µg/mL

What is its MIC for Staphylococcus aureus? Entry: `CCCCCCCCCC(=O)N[C@@H](Cc1c[nH]c2ccccc12)C(=O)N[C@H](CC(N)=O)C(=O)N[C@@H](CC(=O)O)C(=O)N[C@@H]1C(=O)NCC(=O)N[C@@H](CCCN)C(=O)N[C@@H](CC(=O)O)C(=O)N[C@H](C)C(=O)N[C@@H](CC(=O)O)C(=O)NCC(=O)N[C@H](CO)C(=O)N[C@@H]([C@H](C)CC(=O)O)C(=O)N[C@@H](CC(=O)c2ccccc2N)C(=O)O[C@@H]1C`
4 µg/mL
